# Test system: K24384-001-R-PDC complex spheroids, viability;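 note: spheroids exposed to compounds for seven days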
# assay_notes: Anticancer human tumor K24384-001-R-PDC patient-derived pancreatic adenocarcinoma cell line growth inhibition [GQUAD]
# assay_setup: second compound 1 µM; first compound 3.16 µM; active compounds read low
Classify: TRUE when viability, T/C is strictly less than 30%; FALSE when viability, T/C is not.

[[record]]
compound = "CC1COCCN1c1cc(-c2ccnn2C)c2ccnc(-c3ccn[nH]3)c2n1 (stereo not given) + CN(C)c1ccc(Nc2c3ccc(NC(=O)CCN4CCCC4)cc3nc3cc(NC(=O)CCN4CCCC4)ccc23)cc1"
cat = "FALSE"


**Q:** Here's an entry: C=CCn1c(=O)c2cnc(Nc3ccc(N4CCN(C)CC4)cc3)nc2n1-c1cccc(C(C)(C)O)n1 + CN(C)c1ccc(Nc2c3ccc(NC(=O)CCN4CCCC4)cc3nc3cc(NC(=O)CCN4CCCC4)ccc23)cc1 . Is its viability, T/C below 30%?
**A:** TRUE

**Q:** Here's an entry: CC(=O)O[C@H]1C(=O)[C@@]2(C)[C@H]([C@H](OC(=O)c3ccccc3)[C@]3(O)C[C@H](OC(=O)[C@H](O)[C@@H](NC(=O)c4ccccc4)c4ccccc4)C(C)=C1C3(C)C)[C@]1(OC(C)=O)CO[C@@H]1C[C@@H]2O + CN(C)c1ccc(Nc2c3ccc(NC(=O)CCN4CCCC4)cc3nc3cc(NC(=O)CCN4CCCC4)ccc23)cc1 . Is its viability, T/C below 30%?
**A:** TRUE

**Q:** Here's an entry: CC(=O)O[C@H]1C(=O)[C@@]2(C)[C@H]([C@H](OC(=O)c3ccccc3)[C@]3(O)C[C@H](OC(=O)[C@H](O)[C@@H](NC(=O)c4ccccc4)c4ccccc4)C(C)=C1C3(C)C)[C@]1(OC(C)=O)CO[C@@H]1C[C@@H]2O + Cc1[nH]c2ccc(F)cc2c1-c1nc2c3cccnc3c3ncccc3c2[nH]1 . Is its viability, T/C below 30%?
**A:** FALSE

**Q:** Here's an entry: CC(C)(O)C1CCC(Nc2ccc3ncc(-c4cccc(C(F)(F)F)c4)n3n2)CC1 (stereo not given) + Cc1[nH]c2ccc(F)cc2c1-c1nc2c3cccnc3c3ncccc3c2[nH]1 . Is its viability, T/C below 30%?
**A:** TRUE

**Q:** Here's an entry: COc1cccc2c1C(=O)c1c(O)c3c(c(O)c1C2=O)CC(O)(C(=O)CO)CC3OC1CC(N)C(O)C(C)O1 (stereo not given) + Cc1[nH]c2ccc(F)cc2c1-c1nc2c3cccnc3c3ncccc3c2[nH]1 . Is its viability, T/C below 30%?
**A:** TRUE
